- Tested on: NCI-H522 lung
- protocol-description: NCI-60 one-dose screen, 48 h (100 = growth as untreated, 0 = no growth, -100 = all killed)
- experimental-context: 10 µM unless noted
About 83,000 compounds went through this panel and 20% of them were active in at least one assay; those are over-represented in the sample as a whole.
# Lookup of reported growth keyed by entry
Form entry: value (%) — number only.

Please review the following examples before continuing.
For the molecule O=C(CCN1CCCC1)Nc1ccc2c(Nc3ccc(Br)cc3)c3ccccc3nc2c1 , what growth is on record? -25

Thanks! And OC(c1cccc(C(F)(F)F)c1)c1cnccc1NC1CCCCC1 (centres undefined) ? 82.4

Would you kindly repeat that for Nc1c(C(=O)Nc2ccnc3ccccc23)sc2nc3c(cc12)CN(Cc1ccccc1)CC3 ? 70.1

Next: COc1cc2c(c(O)c1Br)C(=O)c1c(O)cc(C[C@H](C)O)cc1[C@H]2[C@H]1c2cc(C[C@H](C)O)cc(O)c2C(=O)c2c1cc(OC)c(Br)c2O 2.22

Field entry: COc1ccc(CCn2cncc2-c2c[nH]c3ccccc23)cc1 83.7

Another molecule: COc1ccc2[nH]c(=O)c(CN3CCN(c4nccc(-c5ccc(Cl)cc5)n4)CC3)cc2c1 77

Can you handle COc1cccc(-c2ccc3c(c2)NC(=O)/C3=C\c2ccc[nH]2)c1 next? 10.4

Same question for Cc1cc(C(=O)/C=C/c2ccc[nH]2)ccc1-n1ccc(C(F)(F)F)n1 please. -9.61

Others:
Field request: growth | item: CCNc1nc2cc(Nc3ccnc4cc(Cl)ccc34)ccc2o1 61.9

----------
- System: OVCAR-3 ovarian
- protocol-description: NCI-60 one-dose screen, 48 h
- experimental-context: 10 µM unless noted
The panel holds about 83,000 compounds, 20% with a hit somewhere; the sample as a whole holds those more often. The source made the active and inactive calls. The calls were made as follows: active = growth percent below 10; inactive = the rest.
Respond only with the outcome that fits, drawn from active, inactive

Example results:
Assay outcome for NNC(=O)c1ccc(-n2nc(-c3ccccc3)c3ccccc32)cc1 : what was it? active

How about this molecule: COc1cc2c(c(OC)c1OC)-c1ccc(NNC(=S)N(Cc3cccc(C[N+](Cc4cccc(CNC56CC7CC(CC(C7)C5)C6)c4)(Cc4cccc(CNC56CC7CC(CC(C7)C5)C6)c4)Cc4cccc(CN(C(=S)NNc5ccc6c(cc5=O)[C@@H](NC(C)=O)CCc5cc(OC)c(OC)c(OC)c5-6)C56CC7CC(CC(C7)C5)C6)c4)c3)C34CC5CC(CC(C5)C3)C4)c(=O)cc1[C@@H](NC(C)=O)CC2 (some centres not stated) inactive

Proceed to Nc1c(S(=O)(=O)O)cc2c3c(cccc13)C(=O)OC2=O inactive

Now consider O=C1c2c(c3c4cccc(F)c4[nH]c3c3ccc4ccccc4c23)C(=O)N1O . inactive

More entries:
Per the records of this test, what outcome belongs to O=S(=O)(NCCNc1nccc(-c2c(-c3cccc(O)c3)nc3occn23)n1)c1ccc(C(F)(F)F)cc1 ? inactive

What do we get for C/C(=N\Nc1cc(C)nc2ccc(Br)cc12)c1ccc([N+](=O)[O-])cc1 ? inactive

COc1cc(-c2csc(NC(=O)c3cc(F)cc(C(F)(F)F)c3)n2)cc(OC)c1OC , same question. inactive

----------
# key: entry, value: growth
- Test system: MCF7 breast
- protocol-description: NCI-60 one-dose screen, 48 h (100 = growth as untreated, 0 = no growth, -100 = all killed)
- experimental-context: 10 µM unless noted
Compounds without any hit were thinned out: in the full panel of roughly 83,000, 20% have a hit.
Enter your answer as a number in %; do not include the unit.

Below are worked cases with known answers.
What does the data say about its growth? Entry: O=C(Nc1ccccc1)Nc1ccc2cc3ccc(NC(=O)Nc4ccccc4)cc3nc2c1 27.2

Follow-up entry: COc1cc(CC(=O)n2ncc3ccc(N)cc32)cc(OC)c1OC 87.5

Follow-up item: COc1ccc(C(=O)C2C(C#N)C(C#N)C3C=Cc4ccccc4N32)cc1 (stereo not given) 9.25

Try CCN1C(=O)N(CC)C2Nn3c(s/c(=C\c4ccc(OC)cc4)c3=O)=NC21 (stereo not given) next. 21

Check CCOC(=O)Oc1c(OC)cc(C(=O)c2ccc(OC)c(OC(=O)CCl)c2OC)cc1OC too. 16.6

For Cc1nn(-c2ccccc2)c(Oc2c(Cl)cccc2Cl)c1/C=N/N=c1\sc2ccccc2n1C then? 45.5

More entries:
Fill in the blank: the reported growth of COc1cc2nc(-c3ccc(Cl)cc3)cc(OCCCN3CCC(O)CC3)c2cc1OC is ____. 48.9

Now the same for N#Cc1c(-c2ccccc2)nc2c(c(-c3ccccc3)nn2-c2ccccc2)c1-c1ccc(O)cc1 14.8

For O=C(N/N=C/c1ccc(Oc2ccccc2)cc1)c1cnn2c1NC(c1ccccc1)C2 (stereo not given) then? 17.7

Please answer likewise for COc1cc2nc(-c3ccc(Cl)cc3)cc(OCCCN3CCCCC3)c2cc1OC 45.8
